Assay: In vivo pharmacokinetics of KY19382
Conditions: Sprague-Dawley, plasma; SD male rat, IP, 5 mg/kg, mean
Method: Animal studies were approved by the Institutional Animal Care and use committee at KRIBB. Briefly, specific pathogen-free male Sprague−Dawley (SD) rats (10 weeks old, body weight 298−315 g), purchased from Koatech Co. […] Pharmacokinetic parameters were calculated by standard noncompartmental analysis of plasma concentration−time profiles using Kinetica 4.4.1 (Thermo Fisher Scientific, Inc., Woburn, MA, USA). […] Systemic plasma clearance (CLP) was calculated as follows: CLP = dose/AUCinf. […]
reported endpoint: Cmax

Supply measured Cmax of CON=C1C(=C2C(=O)Nc3cc(Cl)c(Cl)cc32)Nc2ccccc21 [KY19382, 5,6-dichloroindirubin-3′-methoxime] in your reply.
463 ng/mL

----------
experiment: In vivo pharmacokinetics of KY19382; conditions: Sprague-Dawley, plasma; SD male rat, IV, 1 mg/kg, mean
reported endpoint: half-life
Field: value (include unit after the number)

Annotate the compound `CON=C1C(=C2C(=O)Nc3cc(Cl)c(Cl)cc32)Nc2ccccc21` with its measured half-life.
3.33 h

----------
assay: In vivo pharmacokinetics of KY19382; conditions: Sprague-Dawley, plasma, intraperitoneal; SD male rat, IP 5 mg/kg vs IV 1 mg/kg; read-out: F (intraperitoneal bioavailability)
reported endpoint: bioavailability

Specify reported bioavailability for the compound shown: `CON=C1C(=C2C(=O)Nc3cc(Cl)c(Cl)cc32)Nc2ccccc21`
16.7%

----------
assay: In vivo pharmacokinetics of KY19382; conditions: Sprague-Dawley, plasma; SD male rat, IP, 5 mg/kg, mean
reported endpoint: half-life (h)
A number alone suffices; assume h.

State, in one line, measured half-life of `CON=C1C(=C2C(=O)Nc3cc(Cl)c(Cl)cc32)Nc2ccccc21`
16.2

----------
assay: In vivo pharmacokinetics of KY19382; details: Sprague-Dawley, plasma; SD male rat, IV, 1 mg/kg, mean; read-out: Vss
reported endpoint: Vd (L/kg)
Lab book: enter the figure in L/kg, no units written.

Consider the compound `CON=C1C(=C2C(=O)Nc3cc(Cl)c(Cl)cc32)Nc2ccccc21` . State its measured Vd.
0.33

----------
test: In vivo pharmacokinetics of KY19382; conditions: Sprague-Dawley, plasma; SD male rat, IV, 1 mg/kg, mean
reported endpoint: clearance (mL/min/kg)
Form entry: value (mL/min/kg) — number only.

Specify measured clearance for `CON=C1C(=C2C(=O)Nc3cc(Cl)c(Cl)cc32)Nc2ccccc21` .
2

----------
assay: In vivo pharmacokinetics of KY19382; settings: Sprague-Dawley, plasma; SD male rat, IV, 1 mg/kg, mean, 0 to 24 hour
reported endpoint: AUC(0-t) (ng·h/mL)
Only the number, expressed in ng·h/mL, is required.

Consider the compound `CON=C1C(=C2C(=O)Nc3cc(Cl)c(Cl)cc32)Nc2ccccc21` and give its recorded AUC(0-t).
7830

----------
assay: In vivo pharmacokinetics of KY19382; details: Sprague-Dawley, plasma; SD male rat, IP, 5 mg/kg, mean
reported endpoint: Tmax (h)
Give the value in h but do not write h after it.

Please list Tmax recorded for the molecule `CON=C1C(=C2C(=O)Nc3cc(Cl)c(Cl)cc32)Nc2ccccc21`
1

Source: paper PMC6458850
